- experiment notes: Apparent permeability in Caco-2 cell from basolateral to apical
- Format: ADME, cell-based
- condition details: human
Kindly state Papp B→A for each of the entries shown.
Answers are plain numbers, in ×10⁻⁶ cm/s.

Below are worked cases with known answers.
O=S(=O)(Nc1ccc2c(-c3ccncc3)c[nH]c2c1)c1ccccc1    9.3
c1ccc2c(-c3ccncc3)c[nH]c2c1    23.9
Cn1cc(C#N)c2ccc(NC(=O)NOCc3ccccc3)cc21    19.1
O=C(NOCc1ccccc1)Nc1ccc2c(-c3ccncc3)c[nH]c2c1    7.3
Cn1cc(C#N)c2ccccc21    37.4

Query: Return reported Papp B→A; argument: CN(C(=O)Nc1ccc2c(-c3ccncc3)c[nH]c2c1)c1ccccc1
Reply: 6.7
